So I've got a bunch of molecules here, and I need their IC50 values.
Target: p110β/p85α (Homo sapiens (Human))
Sequence (P42338 whole entry): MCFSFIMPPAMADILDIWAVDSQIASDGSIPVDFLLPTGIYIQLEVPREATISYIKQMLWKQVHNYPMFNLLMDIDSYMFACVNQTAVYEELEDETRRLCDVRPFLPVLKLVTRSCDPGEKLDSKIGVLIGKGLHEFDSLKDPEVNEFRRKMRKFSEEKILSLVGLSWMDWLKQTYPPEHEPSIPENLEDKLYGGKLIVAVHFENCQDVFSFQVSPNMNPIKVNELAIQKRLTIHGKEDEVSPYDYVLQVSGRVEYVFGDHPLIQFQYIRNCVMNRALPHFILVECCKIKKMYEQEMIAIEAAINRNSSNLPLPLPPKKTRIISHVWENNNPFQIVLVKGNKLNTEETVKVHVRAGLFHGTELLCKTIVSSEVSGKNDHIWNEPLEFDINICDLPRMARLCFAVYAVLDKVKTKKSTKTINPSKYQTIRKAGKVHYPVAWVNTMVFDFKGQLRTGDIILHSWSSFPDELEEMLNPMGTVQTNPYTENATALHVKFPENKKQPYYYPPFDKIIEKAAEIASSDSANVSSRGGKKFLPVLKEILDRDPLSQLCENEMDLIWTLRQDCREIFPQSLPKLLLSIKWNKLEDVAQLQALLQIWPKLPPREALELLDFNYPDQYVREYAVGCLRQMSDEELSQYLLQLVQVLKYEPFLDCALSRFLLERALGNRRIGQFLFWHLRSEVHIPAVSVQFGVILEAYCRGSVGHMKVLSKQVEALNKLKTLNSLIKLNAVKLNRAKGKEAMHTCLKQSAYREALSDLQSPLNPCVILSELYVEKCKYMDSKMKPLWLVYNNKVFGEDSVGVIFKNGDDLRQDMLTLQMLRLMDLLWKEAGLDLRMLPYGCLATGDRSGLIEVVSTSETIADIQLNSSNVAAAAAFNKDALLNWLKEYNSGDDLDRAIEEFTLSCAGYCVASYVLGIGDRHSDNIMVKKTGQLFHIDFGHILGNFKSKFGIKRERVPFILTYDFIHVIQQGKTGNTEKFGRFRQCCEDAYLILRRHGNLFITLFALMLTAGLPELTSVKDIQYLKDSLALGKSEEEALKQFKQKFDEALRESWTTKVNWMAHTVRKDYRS
Sequence (P27986 whole entry partner): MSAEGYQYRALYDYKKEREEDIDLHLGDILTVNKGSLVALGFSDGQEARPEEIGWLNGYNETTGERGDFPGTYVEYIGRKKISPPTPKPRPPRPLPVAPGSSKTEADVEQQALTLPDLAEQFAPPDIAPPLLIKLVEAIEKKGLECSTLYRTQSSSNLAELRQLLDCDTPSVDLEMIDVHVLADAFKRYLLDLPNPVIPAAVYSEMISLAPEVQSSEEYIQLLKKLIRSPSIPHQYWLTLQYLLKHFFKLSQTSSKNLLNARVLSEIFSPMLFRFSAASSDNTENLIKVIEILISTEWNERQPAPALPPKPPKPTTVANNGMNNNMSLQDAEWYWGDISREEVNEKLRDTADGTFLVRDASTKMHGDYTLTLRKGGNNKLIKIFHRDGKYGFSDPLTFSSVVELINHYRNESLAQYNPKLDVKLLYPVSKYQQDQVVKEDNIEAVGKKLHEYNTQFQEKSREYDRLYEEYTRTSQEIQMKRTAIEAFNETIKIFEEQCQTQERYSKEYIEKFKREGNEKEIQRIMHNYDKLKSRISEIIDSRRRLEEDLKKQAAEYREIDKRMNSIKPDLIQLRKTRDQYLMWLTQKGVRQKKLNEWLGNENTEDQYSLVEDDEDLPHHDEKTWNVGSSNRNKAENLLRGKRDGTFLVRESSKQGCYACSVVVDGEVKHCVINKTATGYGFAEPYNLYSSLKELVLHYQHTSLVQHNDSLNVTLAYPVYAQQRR
Assay: PI 3-Kinase (human) HTRF assay, p110β/p85α
Assay type: biochemical
Conditions: read-out: PI3K β In Vitro IC50

Item `C[C@@H]1COCCN1C(=O)c1cnc2ccc(-c3ccc4oc(N)nc4c3)cn12` has what recorded IC50?
< 10 µM

Item `COc1ncc(-c2ccc3ncc(C(=O)N4CCOCC4)n3c2)cc1NS(=O)(=O)c1ccc(F)cc1F` has what recorded IC50?
< 0.1 µM

Item `Cc1cc(-c2ccc3oc(N)nc3c2)cc2c(-c3ccncc3)cnn12` has what recorded IC50?
< 1 µM

Item `COc1ncc(-c2ccc3ncn(C4CCN(C)CC4)c(=O)c3c2)cc1NS(=O)(=O)c1ccccc1` has what recorded IC50?
< 0.1 µM

Item `C[C@@H]1CN(C2CN(C(=O)c3cnc4ccc(-c5ccc6oc(N)nc6c5)cn34)C2)CCN1` has what recorded IC50?
< 10 µM

Item `Nc1nc2cc(-c3ccc4ncc(C(=O)N5CC6(C5)OCCO6)n4c3)ccc2o1` has what recorded IC50?
< 10 µM

Item `C[C@H]1COCCN1C(=O)c1cnc2ccc(-c3ccc4oc(N)nc4c3)cn12` has what recorded IC50?
< 10 µM

Item `CN1CCC(n2cnc3ccc(-c4cnc(Cl)c(NS(C)(=O)=O)c4)cc3c2=O)CC1` has what recorded IC50?
< 10 µM

---

Biological target: recombinant mTOR (Homo sapiens (Human), UniProt P42345)
Sequence (P42345 1360-2549): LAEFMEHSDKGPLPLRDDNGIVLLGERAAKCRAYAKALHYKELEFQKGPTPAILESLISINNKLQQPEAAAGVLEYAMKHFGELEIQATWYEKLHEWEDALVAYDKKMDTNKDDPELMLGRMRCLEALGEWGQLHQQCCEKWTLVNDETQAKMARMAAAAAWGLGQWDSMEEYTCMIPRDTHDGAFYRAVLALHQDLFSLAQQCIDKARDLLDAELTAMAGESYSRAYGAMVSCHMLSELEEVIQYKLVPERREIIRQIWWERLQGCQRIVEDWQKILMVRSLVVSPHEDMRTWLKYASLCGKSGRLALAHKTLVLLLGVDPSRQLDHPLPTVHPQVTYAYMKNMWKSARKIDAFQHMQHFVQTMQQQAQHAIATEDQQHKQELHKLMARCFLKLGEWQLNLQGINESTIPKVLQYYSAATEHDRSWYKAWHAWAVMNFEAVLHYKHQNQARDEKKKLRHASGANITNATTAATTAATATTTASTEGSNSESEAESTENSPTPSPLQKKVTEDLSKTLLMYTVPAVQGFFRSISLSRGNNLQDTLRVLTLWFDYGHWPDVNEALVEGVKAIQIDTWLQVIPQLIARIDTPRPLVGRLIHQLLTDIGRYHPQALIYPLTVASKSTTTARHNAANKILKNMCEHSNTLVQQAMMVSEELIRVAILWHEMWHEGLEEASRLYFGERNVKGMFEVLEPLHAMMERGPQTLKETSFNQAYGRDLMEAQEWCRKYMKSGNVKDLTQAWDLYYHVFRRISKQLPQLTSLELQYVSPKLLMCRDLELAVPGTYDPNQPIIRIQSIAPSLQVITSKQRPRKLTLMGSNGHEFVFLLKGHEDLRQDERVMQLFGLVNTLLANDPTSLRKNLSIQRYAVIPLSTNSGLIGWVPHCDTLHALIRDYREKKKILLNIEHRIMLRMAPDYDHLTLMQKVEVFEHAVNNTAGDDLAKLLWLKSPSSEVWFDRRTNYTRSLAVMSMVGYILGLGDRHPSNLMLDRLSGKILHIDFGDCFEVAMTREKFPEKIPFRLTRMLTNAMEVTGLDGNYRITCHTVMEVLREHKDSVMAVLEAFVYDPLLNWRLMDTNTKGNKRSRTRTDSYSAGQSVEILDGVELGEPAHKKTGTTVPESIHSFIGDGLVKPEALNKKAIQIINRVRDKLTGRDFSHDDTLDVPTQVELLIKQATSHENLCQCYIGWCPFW
Assay: mTOR inhibition assay (radiometric or LanthaScreen TR-FRET)
Format: biochemical
Details: read-out: MTORC IC50
pIC50: −log10 of the molar value.
assayMetric: pIC50

Item `Nc1nc2cc(-c3ccc4ncc(-c5cccnc5)nc4c3)ccc2o1` has what recorded pIC50?
> 5.00

Item `Cn1c(=O)n(-c2ccc(C(C)(C)C#N)cc2)c2c3cc(-c4ccc5oc(N)nc5c4)ccc3ncc21` has what recorded pIC50?
> 7.00

Item `N#Cc1cnc2ccc(-c3ccc4oc(N)nc4c3)cc2c1-c1ccncc1` has what recorded pIC50?
> 7.00

Item `CN1CCN(C(=O)c2cnc3ccc(-c4ccc5oc(N)nc5c4)cn23)CC1` has what recorded pIC50?
> 5.00

Item `Nc1nc2cc(-c3ccc4ncc(-c5ccncc5)n4c3)ccc2o1` has what recorded pIC50?
> 5.00

Item `Cn1cc(-c2cnc3ccc(-c4ccc5oc(N)nc5c4)cn23)cn1` has what recorded pIC50?
> 5.00

Item `Nc1nc2cc(-c3ccc4ncc(-c5ccncc5)n4n3)ccc2o1` has what recorded pIC50?
> 6.00

Item `CC(C)N1CCC(n2cnc3ccc(-c4ccc5oc(N)nc5c4)cc3c2=O)CC1` has what recorded pIC50?
> 5.00

Item `CC(=O)N1CCC(Nc2ncnc3ccc(-c4ccc5oc(N)nc5c4)cc23)CC1` has what recorded pIC50?
> 6.00

Item `Nc1nc2cc(-c3ccc4ncc(N5CC(C(=O)N6CCOCC6)C5)nc4c3)ccc2o1` has what recorded pIC50?
> 5.00

Item `Nc1nc2cc(-c3ccc4nccn4c3)ccc2o1` has what recorded pIC50?
> 5.00

Item `Nc1nc2cc(-c3ccc4ncc(=O)[nH]c4c3)ccc2o1` has what recorded pIC50?
> 6.00

Item `Nc1nc2cccc(-c3ccc4nccc(-c5ccncc5)c4c3)c2o1` has what recorded pIC50?
> 7.00

Item `CN1CCC(Nc2ncnc3ccc(-c4ccc5oc(N)nc5c4)cc23)CC1` has what recorded pIC50?
> 5.00

Item `Nc1nc2cc(-c3ccn4ncc(-c5ccncc5)c4n3)ccc2o1` has what recorded pIC50?
> 7.00

Item `Cn1cc(-c2ccnc3ccc(-c4ccc5oc(N)nc5c4)cc23)cn1` has what recorded pIC50?
> 6.00

Item `Nc1nc2ccc(-c3ccc4nccc(-c5ccncc5)c4c3)cc2s1` has what recorded pIC50?
> 6.00

Item `N#Cc1cnc2ccc(-c3ccc4oc(N)nc4c3)cc2c1Cl` has what recorded pIC50?
> 6.00

---

Molecular target: p110δ/p85α (Homo sapiens (Human))
Sequence (O00329 whole entry): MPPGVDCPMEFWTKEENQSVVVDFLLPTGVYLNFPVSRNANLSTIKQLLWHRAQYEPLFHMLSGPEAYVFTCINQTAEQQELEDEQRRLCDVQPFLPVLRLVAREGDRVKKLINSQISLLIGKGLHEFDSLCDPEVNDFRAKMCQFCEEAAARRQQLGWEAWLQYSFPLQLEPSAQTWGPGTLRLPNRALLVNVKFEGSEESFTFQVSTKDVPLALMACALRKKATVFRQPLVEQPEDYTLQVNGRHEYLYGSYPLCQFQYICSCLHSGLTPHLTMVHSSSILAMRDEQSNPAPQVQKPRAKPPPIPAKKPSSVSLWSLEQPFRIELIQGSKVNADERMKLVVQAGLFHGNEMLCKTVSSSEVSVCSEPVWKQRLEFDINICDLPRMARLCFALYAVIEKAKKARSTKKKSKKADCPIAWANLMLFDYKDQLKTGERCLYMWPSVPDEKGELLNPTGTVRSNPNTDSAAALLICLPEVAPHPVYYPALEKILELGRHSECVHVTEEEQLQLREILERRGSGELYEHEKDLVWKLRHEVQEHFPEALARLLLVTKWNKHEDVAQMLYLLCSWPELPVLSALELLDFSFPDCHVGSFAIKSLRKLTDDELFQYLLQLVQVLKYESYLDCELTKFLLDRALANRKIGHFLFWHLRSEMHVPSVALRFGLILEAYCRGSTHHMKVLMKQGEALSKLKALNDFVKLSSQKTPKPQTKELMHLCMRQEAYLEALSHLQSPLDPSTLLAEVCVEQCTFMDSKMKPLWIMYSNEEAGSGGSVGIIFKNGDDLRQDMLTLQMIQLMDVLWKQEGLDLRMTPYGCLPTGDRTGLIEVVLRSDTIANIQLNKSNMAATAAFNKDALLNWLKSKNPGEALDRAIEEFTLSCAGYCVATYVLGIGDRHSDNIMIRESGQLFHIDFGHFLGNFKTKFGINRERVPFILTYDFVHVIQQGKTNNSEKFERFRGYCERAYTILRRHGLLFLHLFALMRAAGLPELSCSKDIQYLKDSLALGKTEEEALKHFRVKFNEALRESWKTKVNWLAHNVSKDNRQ
Sequence (P27986 whole entry partner): as the sequence (P27986 whole entry partner) above
Assay: PI 3-Kinase (human) HTRF assay, p110δ/p85α
Type: biochemical
Conditions: in vitro; read-out: PI3K δ IC50
pIC50: −log10 of the molar value.
assayMetric: pIC50

Notebook: pull reported pIC50 for p110δ/p85α (Homo sapiens (Human)), entry `CCN(CC)C1CN(c2cnc3ccc(-c4ccc5oc(N)nc5c4)cc3n2)C1`
> 5.00

Notebook: pull reported pIC50 for p110δ/p85α (Homo sapiens (Human)), entry `CN1CCN(C2CN(c3cnc4ccc(-c5ccc6oc(N)nc6c5)cc4n3)C2)CC1`
> 5.00

Notebook: pull reported pIC50 for p110δ/p85α (Homo sapiens (Human)), entry `Nc1nc2cc(-c3ccc4ncc(N5CC(N6CCN(C7CC7)CC6)C5)nc4c3)ccc2o1`
> 5.00

Notebook: pull reported pIC50 for p110δ/p85α (Homo sapiens (Human)), entry `Nc1nc2cc(-c3ccc4ncc(N5CC(N6CC[C@H](O)C6)C5)nc4c3)ccc2o1`
> 5.00

Notebook: pull reported pIC50 for p110δ/p85α (Homo sapiens (Human)), entry `CN1CCN(c2cnc3ccc(-c4ccc5oc(N)nc5c4)cc3n2)CC1=O`
> 5.00

Notebook: pull reported pIC50 for p110δ/p85α (Homo sapiens (Human)), entry `Nc1nc2cc(-c3ccc4ncc(N5CCN(C(=O)[C@@H](N)CO)CC5)nc4c3)ccc2o1`
> 5.00

Notebook: pull reported pIC50 for p110δ/p85α (Homo sapiens (Human)), entry `Cc1c(-c2ccc3oc(N)nc3c2)ccc2ncc(N3CCN[C@@H](C)C3)nc12`
> 5.00

Notebook: pull reported pIC50 for p110δ/p85α (Homo sapiens (Human)), entry `Nc1nc2cc(-c3ccc4ncn(CCN5CCCC5)c(=O)c4c3)ccc2o1`
> 5.00

Notebook: pull reported pIC50 for p110δ/p85α (Homo sapiens (Human)), entry `Cc1ccc(NC(=O)c2cnc3ccc(-c4ccc5oc(N)nc5c4)cn23)cn1`
> 5.00

Notebook: pull reported pIC50 for p110δ/p85α (Homo sapiens (Human)), entry `C[C@@H](N)C(=O)N1CCN(c2cnc3ccc(-c4ccc5oc(N)nc5c4)cc3n2)CC1`
> 6.00

Notebook: pull reported pIC50 for p110δ/p85α (Homo sapiens (Human)), entry `C[C@H](N)C(=O)N1CCN(c2cnc3ccc(-c4ccc5oc(N)nc5c4)cc3n2)CC1`
> 6.00

Notebook: pull reported pIC50 for p110δ/p85α (Homo sapiens (Human)), entry `Nc1nc2cc(-c3ccc4sc(N)nc4c3)ccc2o1`
> 5.00

Notebook: pull reported pIC50 for p110δ/p85α (Homo sapiens (Human)), entry `C[C@H]1CN(C2CN(c3cnc4ccc(-c5ccc6oc(N)nc6c5)cc4n3)C2)CCN1`
> 5.00

Notebook: pull reported pIC50 for p110δ/p85α (Homo sapiens (Human)), entry `CC(=O)Nc1nc(C)c(-c2ccc3oc(N)nc3c2)s1`
> 6.00

Notebook: pull reported pIC50 for p110δ/p85α (Homo sapiens (Human)), entry `CC(=O)Nc1nc2cc(-c3ccc4nc(N)oc4c3)ccc2s1`
> 7.00

Notebook: pull reported pIC50 for p110δ/p85α (Homo sapiens (Human)), entry `CC(=O)Nc1nc2ccc(-c3ccc4oc(N)nc4c3)cc2s1`
> 7.00

Notebook: pull reported pIC50 for p110δ/p85α (Homo sapiens (Human)), entry `CC(C)N1CCN(C2CN(c3cnc4ccc(-c5ccc6oc(N)nc6c5)cc4n3)C2)CC1`
> 5.00

Notebook: pull reported pIC50 for p110δ/p85α (Homo sapiens (Human)), entry `Nc1nc2cc(-c3ccc4ncc(N5CCN(C(=O)[C@H]6CCCN6)CC5)nc4c3)ccc2o1`
> 7.00

Notebook: pull reported pIC50 for p110δ/p85α (Homo sapiens (Human)), entry `Nc1nc2cc(-c3ccc4nc(N)oc4c3)ccc2o1`
> 6.00

Notebook: pull reported pIC50 for p110δ/p85α (Homo sapiens (Human)), entry `CN1CCC(NC(=O)c2cnc3ccc(-c4ccc5oc(N)nc5c4)nn23)CC1`
> 6.00

Notebook: pull reported pIC50 for p110δ/p85α (Homo sapiens (Human)), entry `Nc1nc2cc(-c3ccc4ncc(N5CC(N6CCOCC6)C5)nc4c3)cc(F)c2o1`
> 5.00

Notebook: pull reported pIC50 for p110δ/p85α (Homo sapiens (Human)), entry `Nc1nc2cc(-c3ccc4ncc(N5CC(N6CCN(CC7CC7)CC6)C5)nc4c3)ccc2o1`
> 5.00

Notebook: pull reported pIC50 for p110δ/p85α (Homo sapiens (Human)), entry `Nc1nc2cc(-c3ccc4ncc(N5CC[C@@H](N6CCOCC6)C5)nc4c3)ccc2o1`
> 5.00

Notebook: pull reported pIC50 for p110δ/p85α (Homo sapiens (Human)), entry `Nc1nc2cc(-c3ccc4ncc(N5CC(N6CCCC6)C5)nc4c3)ccc2o1`
> 5.00

Notebook: pull reported pIC50 for p110δ/p85α (Homo sapiens (Human)), entry `Nc1nc2cc(-c3ccc4ncc(C(=O)N5CCOCC5)n4c3)cc(F)c2o1`
> 5.00

Notebook: pull reported pIC50 for p110δ/p85α (Homo sapiens (Human)), entry `CN1CCN(C2CN(C(=O)c3cnc4ccc(-c5ccc6oc(N)nc6c5)cn34)C2)CC1`
> 5.00

Notebook: pull reported pIC50 for p110δ/p85α (Homo sapiens (Human)), entry Nc1nc2cc(-c3ccc4ncc(N5CCC(O)C5)nc4c3)ccc2o1 (stereo not shown)
> 5.00

Notebook: pull reported pIC50 for p110δ/p85α (Homo sapiens (Human)), entry `Cc1nccn1C1CCN(c2cnc3ccc(-c4ccc5oc(N)nc5c4)cc3n2)CC1`
> 6.00

Notebook: pull reported pIC50 for p110δ/p85α (Homo sapiens (Human)), entry `Cc1cc(-c2ccc3oc(N)nc3c2)cc2c(C(=O)N3CCCC3)cnn12`
> 6.00

Notebook: pull reported pIC50 for p110δ/p85α (Homo sapiens (Human)), entry `CC(C)N1CCN(C(=O)C2CN(c3cnc4ccc(-c5ccc6oc(N)nc6c5)cc4n3)C2)CC1`
> 6.00

Notebook: pull reported pIC50 for p110δ/p85α (Homo sapiens (Human)), entry `Nc1nc2cc(-c3ccc4ncc(N5CC(N6CCS(=O)(=O)CC6)C5)nc4c3)ccc2o1`
> 5.00

Notebook: pull reported pIC50 for p110δ/p85α (Homo sapiens (Human)), entry `NC(=O)[C@H]1CCCN1C(=O)C1CN(c2cnc3ccc(-c4ccc5oc(N)nc5c4)cc3n2)C1`
> 5.00

Notebook: pull reported pIC50 for p110δ/p85α (Homo sapiens (Human)), entry `CS(=O)(=O)N1CCN(C2CN(c3cnc4ccc(-c5ccc6oc(N)nc6c5)cc4n3)C2)CC1`
> 5.00

Notebook: pull reported pIC50 for p110δ/p85α (Homo sapiens (Human)), entry `Nc1nc2cc(-c3ccc4ncc(N5CCN(C(=O)[C@H](N)CO)CC5)nc4c3)ccc2o1`
> 7.00
